# System tested: F508delCFTR (Homo sapiens, UniProt P13569, DEL508-508)
# Sequence (P13569 with tags, fused parts or gaps DEL508-508): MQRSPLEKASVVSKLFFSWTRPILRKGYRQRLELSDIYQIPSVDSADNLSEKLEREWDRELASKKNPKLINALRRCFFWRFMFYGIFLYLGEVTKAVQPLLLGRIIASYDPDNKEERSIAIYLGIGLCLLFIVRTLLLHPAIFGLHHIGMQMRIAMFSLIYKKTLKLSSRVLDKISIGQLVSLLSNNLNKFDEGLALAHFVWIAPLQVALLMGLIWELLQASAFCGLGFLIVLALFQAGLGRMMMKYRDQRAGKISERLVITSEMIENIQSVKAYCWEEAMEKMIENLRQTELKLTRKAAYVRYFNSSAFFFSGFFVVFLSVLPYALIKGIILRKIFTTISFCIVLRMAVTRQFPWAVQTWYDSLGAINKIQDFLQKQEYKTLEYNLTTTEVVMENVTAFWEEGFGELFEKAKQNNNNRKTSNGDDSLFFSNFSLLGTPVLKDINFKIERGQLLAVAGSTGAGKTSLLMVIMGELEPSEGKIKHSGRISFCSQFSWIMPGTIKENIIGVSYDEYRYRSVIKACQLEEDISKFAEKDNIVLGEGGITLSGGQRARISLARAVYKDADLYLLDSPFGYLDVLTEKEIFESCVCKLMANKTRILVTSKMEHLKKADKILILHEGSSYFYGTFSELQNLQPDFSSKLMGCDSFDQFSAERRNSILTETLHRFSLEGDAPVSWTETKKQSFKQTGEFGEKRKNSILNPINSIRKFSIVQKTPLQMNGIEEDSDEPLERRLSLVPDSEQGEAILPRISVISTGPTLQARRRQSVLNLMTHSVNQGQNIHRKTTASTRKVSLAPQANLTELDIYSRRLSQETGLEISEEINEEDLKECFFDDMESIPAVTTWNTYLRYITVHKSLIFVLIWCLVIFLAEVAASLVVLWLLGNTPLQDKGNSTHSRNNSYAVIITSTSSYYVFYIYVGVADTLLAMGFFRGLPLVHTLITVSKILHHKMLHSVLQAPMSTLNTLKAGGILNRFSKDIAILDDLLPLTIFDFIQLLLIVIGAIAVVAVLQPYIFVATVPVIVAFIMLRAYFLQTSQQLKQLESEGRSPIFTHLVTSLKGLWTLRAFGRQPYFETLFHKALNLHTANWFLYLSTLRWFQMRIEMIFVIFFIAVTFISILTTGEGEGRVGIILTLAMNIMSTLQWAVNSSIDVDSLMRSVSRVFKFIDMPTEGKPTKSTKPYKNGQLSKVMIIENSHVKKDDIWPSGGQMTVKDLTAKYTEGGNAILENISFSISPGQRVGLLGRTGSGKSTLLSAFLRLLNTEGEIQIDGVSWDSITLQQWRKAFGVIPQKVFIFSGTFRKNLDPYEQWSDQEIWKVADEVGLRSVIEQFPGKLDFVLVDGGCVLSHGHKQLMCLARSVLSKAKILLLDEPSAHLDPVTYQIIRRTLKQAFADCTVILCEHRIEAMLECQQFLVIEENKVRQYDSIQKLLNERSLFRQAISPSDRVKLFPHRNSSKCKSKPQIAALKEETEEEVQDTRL
# Test name: Cell Surface Expression-Horse Radish Peroxidase (CSE-HRP) assay
# Condition notes: CFBE41o-F508delCFTR-HRP cells; F508delCFTR cell surface expression, luminescence; 18-24 hours at 33° C.; highest concentration 20 μM
pEC50: −log10 of the molar value.
Readout name: pEC50

The following compounds have reported results that may help.
Compound: COc1ccc2c(c1)O[C@@H](c1cccc(C(=O)O)c1)C[C@H]2NC(=O)C1(c2ccc(Br)cc2)CC1
System tested: F508delCFTR (Homo sapiens, UniProt P13569, DEL508-508)
pEC50: 6.55
--
Compound: COc1ccc2c(c1)O[C@@H](c1ccc(C(=O)O)cc1)C[C@H]2NC(=O)C1(c2ccc(OC(F)(F)F)cc2)CCC1
System tested: F508delCFTR (Homo sapiens, UniProt P13569, DEL508-508)
pEC50: 5.66

P. COc1ccc2c(c1)O[C@@H](c1cccc(C(=O)O)c1)C[C@H]2NC(=O)C1(c2ccc(Cl)cc2)CC1
Q. COc1ccc2c(c1)OC(c1ccc(OC)c(OC)c1)CC2NC(=O)C1(c2ccc(F)c(F)c2)CCC1 (stereo not shown)
Parameter metric = pEC50. Return the lower-valued option from P and Q . Reply with the label of the item you choose.
Q
(Q: 5.48, P: 6.55)

----------
# System tested: F508delCFTR (Homo sapiens, UniProt P13569, DEL508-508)
# Test name: Cell Surface Expression-Horse Radish Peroxidase (CSE-HRP) assay
# Condition notes: CFBE41o-F508delCFTR-HRP cells; F508delCFTR cell surface expression, luminescence; 18-24 hours at 33° C.; highest concentration 20 μM
Readout name: EC50 (nM)

1. COc1ccc2c(c1)O[C@@H](c1ccc(C(=O)O)cc1)C[C@H]2NC(=O)C1(c2ccc(Br)cc2)CC1 [Example 4]
2. COc1ccc2c(c1)O[C@@H](c1ccc(C(=O)O)cc1)C[C@H]2NC(=O)[C@@]1(C)CCc2cc(C)ccc21 (single isomer, unassigned) [Example 9]
3. COC(=O)c1cccc([C@H]2C[C@@H](NC(=O)[C@]3(C)CCc4cc(OC)ccc43)c3ccc(OC)cc3O2)c1 [Example 29]
Sort ascending by EC50: all records listed above. Please list the labels according to the requested order.
2, 1, 3

----------
# System tested: F508del/F508del CFTR (Homo sapiens, UniProt P13569, DEL508-508)
# Construct: cells isolated from CF patients with the homozygous mutation; endogenous in cells; host or cells: primary human bronchial epithelial (hBE) cells from F508del/F508del CF patients
# Sequence (P13569 with tags, fused parts or gaps DEL508-508): as above
# Test name: Transepithelial Clamp Circuit (TECC-24) conductance assay on primary human bronchial epithelial cells (hBE-TECC)
# Assay type: cell-based
# Condition notes: relative to positive control (3 μM) coupled with control potentiator
Readout name: Maximum % activity (%)

Compound: O=C(N[C@@H]1C[C@H]([C@H]2CC[C@@H](C(=O)O)CC2)Oc2cc(OC(F)F)ccc21)C1(c2ccc3c(c2)OC(F)(F)O3)CC1 [Example 15A]
Unit text: %
Maximum % activity: 92.0

Compound: COc1ccc2c(c1)O[C@@H](c1cccc(C(=O)O)c1)C[C@H]2NC(=O)[C@@]1(C)CCc2cc(C)ccc21 (single isomer, unassigned)
Unit text: %
Maximum % activity: 85.6

Compound: O=C(N[C@@H]1C[C@H]([C@H]2CC[C@H](C(=O)O)CC2)Oc2cc(OC(F)(F)F)ccc21)C1(c2ccc3c(c2)OC(F)(F)O3)CC1
Unit text: %
Maximum % activity: 117.5

Compound: O=C(N[C@@H]1C[C@H]([C@H]2CC[C@H](C(=O)O)CC2)Oc2cc(OC(F)F)ccc21)C1(c2ccc3c(c2)OC(F)(F)O3)CC1 [Example 15B]
Unit text: %
Maximum % activity: 109.6

Compound: COc1ccc2c(c1)O[C@@H]([C@H]1CC[C@H](C(=O)O)CC1)C[C@H]2NC(=O)C1(c2ccc3c(c2)OC(F)(F)O3)CC1
Unit text: %
Maximum % activity: 104.3

----------
# System tested: F508delCFTR (Homo sapiens, UniProt P13569, DEL508-508)
# Construct: expressed in transfected cells; host or cells: CFBE41o- (human lung derived epithelial cell line), doxycycline-inducible
# Test name: Cell Surface Expression-Horse Radish Peroxidase (CSE-HRP) assay
# Type: cell-based
# Condition notes: CFBE41o-F508delCFTR-HRP cells; maximum at any tested concentration, normalized to on-plate positive control (3 μM)
Readout name: Maximum % activity (%)

The following compounds have reported results that may help.
Compound: COc1cccc2c1[C@@](C)(C(=O)N[C@@H]1C[C@H](c3cccc(C(=O)O)c3)Oc3ccccc31)CC2
Observed measurement: 1.1
//
Compound: C[C@@]1(C(=O)N[C@@H]2C[C@H](c3cccc(C(=O)O)c3)Oc3ccccc32)Cc2cc(Cl)ccc2O1
Observed measurement: 7.9
//
Compound: COC(=O)[C@H]1CC[C@H]([C@H]2C[C@@H](NC(=O)C3(c4ccc5c(c4)OC(F)(F)O5)CC3)c3ccc(OC(F)F)cc3O2)CC1 (single isomer, unassigned) [Example 14E]
Observed measurement: 125.0

a. COc1ccc2c(c1)O[C@@H](c1ccc(C(=O)O)cc1)C[C@H]2NC(=O)C(C)(C)c1ccc2c(c1)OC(F)(F)O2
b. COc1ccc2c(c1)O[C@@H](c1ccc(C(=O)O)cc1)C[C@H]2NC(=O)C1(c2ccccc2F)CC1
c. COC(=O)c1cccc([C@H]2C[C@@H](NC(=O)[C@]3(C)CCc4cc(Cl)ccc4O3)c3ccccc3O2)c1
Arrange items by their Maximum % activity values in increasing order. Please list the labels according to the requested order.
c, b, a

----------
# System tested: F508delCFTR (Homo sapiens, UniProt P13569, DEL508-508)
# Test name: Cell Surface Expression-Horse Radish Peroxidase (CSE-HRP) assay
# Condition notes: CFBE41o-F508delCFTR-HRP cells; F508delCFTR cell surface expression, luminescence; 18-24 hours at 33° C.; highest concentration 20 μM
pEC50: −log10 of the molar value.
Readout name: pEC50

The following compounds have reported results that may help.
Compound: CCOC(=O)[C@H]1CC[C@H]([C@H]2C[C@@H](NC(=O)C3(c4ccc5c(c4)OC(F)(F)O5)CC3)c3ccc(OC(F)(F)F)cc3O2)CC1
pEC50: 7.15
--
Compound: COc1ccc2c(c1)O[C@@H](c1ccc(C(=O)O)cc1)C[C@H]2NC(=O)C1(c2ccc(Cl)c(Cl)c2)CC1
pEC50: 6.82
--
Compound: C[C@@]1(C(=O)N[C@@H]2C[C@H](c3ccc(C(=O)O)cc3)Oc3ccccc32)CCc2cc(Cl)ccc2O1
pEC50: 5.58
--
Compound: COc1ccc2c(c1)O[C@@H](c1ccc(C(=O)O)cc1)C[C@H]2NC(=O)C1(c2ccc(C(F)(F)F)cc2)CC1
pEC50: 6.68

1. COc1ccc2c(c1)O[C@@H](c1cccc(C(=O)O)c1)C[C@H]2NC(=O)C(C)(C)c1ccc(OC(F)(F)F)cc1
2. COc1ccc2c(c1)O[C@@H](c1cccc(C(=O)O)c1)C[C@H]2NC(=O)[C@@]1(C)CCc2cc(C)ccc21 (single isomer, unassigned)
Parameter metric = pEC50. Return the lower-valued option from 1 and 2 . Reply with the label of the item you choose.
1

----------
# System tested: F508del/F508del CFTR (Homo sapiens, UniProt P13569, DEL508-508)
# Construct: cells isolated from CF patients with the homozygous mutation; endogenous in cells
# Test name: Transepithelial Clamp Circuit (TECC-24) conductance assay on primary human bronchial epithelial cells (hBE-TECC)
# Condition notes: equivalent short circuit current, 18-24 hours at 37° C., with control potentiator
pEC50: −log10 of the molar value.
Readout name: pEC50

The following compounds have reported results that may help.
Compound: O=C(N[C@@H]1C[C@H]([C@H]2CC[C@H](C(=O)O)CC2)Oc2cc(OC(F)(F)F)ccc21)C1(c2ccc3c(c2)OC(F)(F)O3)CC1
Observed measurement: 8.40

Compound: COc1ccc2c(c1)O[C@@H](c1cccc(C(=O)O)c1)C[C@H]2NC(=O)[C@@]1(C)CCc2cc(C)ccc21 (single isomer, unassigned)
Observed measurement: 7.62

Compound: O=C(N[C@@H]1C[C@H]([C@H]2CC[C@H](C(=O)O)CC2)Oc2cc(OC(F)F)ccc21)C1(c2ccc3c(c2)OC(F)(F)O3)CC1 [Example 15B]
Observed measurement: 7.52

P. COc1ccc2c(c1)O[C@@H]([C@H]1CC[C@H](C(=O)O)CC1)C[C@H]2NC(=O)C1(c2ccc3c(c2)OC(F)(F)O3)CC1
Q. O=C(N[C@@H]1C[C@H]([C@H]2CC[C@@H](C(=O)O)CC2)Oc2cc(OC(F)F)ccc21)C1(c2ccc3c(c2)OC(F)(F)O3)CC1 [Example 15A]
Short answer wanted: higher pEC50, P or Q ? Reply with the label of the item you choose.
P
(P: 7.68, Q: 6.24)
